// provenance: patent US20120135995A1

Reported pest or weed control at 40 ppm values follow for various compounds
- System: Puccinia recondita f. sp. tritici
- ASSAY_PROCEDURE: Test E2: wheat seedlings sprayed, next day inoculated with Puccinia recondita f. sp. tritici (wheat leaf rust), visual disease rating
- Assay type: in vivo
- MEASUREMENT_SETUP: Puccinia recondita, 40 ppm test suspension (*), sprayed day before inoculation
Report as a plain number; the unit % is understood.

Previously resolved entries follow.
COc1cc(OC)cc(-c2c(Cl)nnc(C)c2-c2c(F)cc(F)cc2F)c1    100
COc1cc(OC)c(Cl)c(-c2c(C)nnc(Cl)c2-c2c(F)cc(F)cc2F)c1    100
COc1cc(OC)cc(-c2c(C)nnc(Cl)c2-c2c(F)cccc2F)c1    100
COc1cc(OC)cc(-c2c(C(C)(C)O)nnc(C)c2-c2c(F)cc(F)cc2F)c1    100
COc1cc(OC)cc(-c2c(C)nnc(C)c2-c2c(F)cc(F)cc2F)c1    100
COc1cc(OC)cc(-c2c(C(C)=O)nnc(C)c2-c2c(F)cc(F)cc2F)c1    99

Exercise: Look up pest or weed control at 40 ppm: COc1cc(OC)cc(-c2c(C)nnc(Cl)c2-c2c(F)cc(F)cc2F)c1
Solution: 100

Exercise: Same again, this time with COc1cc(OC)cc(-c2c(C)nnc(Cl)c2-c2c(F)cc(OC)cc2F)c1
Solution: 100

Exercise: Query COc1cc(OC)cc(-c2c(CCl)nnc(Cl)c2-c2c(F)cccc2F)c1 next
Solution: 97

Exercise: Further, for COc1cc(OC)cc(-c2c(C)nnc(C)c2-c2c(F)cc(OC)cc2F)c1 ?
Solution: 100
